experiment: Hematology assays in cynomolgus monkeys (Example 46); type: in vivo; conditions: Day-14
Strand notation (5' to 3'): a small letter for the sugar, then the base; units joined by * are phosphorothioate-linked, units joined directly phosphodiester-linked; [ ] holds rarer units or linkages, { } end groups; capitals alone tell only the bases. e = 2'-O-(2-methoxyethyl) (MOE); [5mC] = 5-methylcytosine; d = 2'-deoxy (DNA)
Kind request: treat 2% as inclusive, so monocytes at 2% or higher is true, anything lower is false.

I'd appreciate it if you could say whether ISIS 416850: MOE gapmer, nucleobases 1275 to 1318 of SEQ ID NO: 1 (Table 8) (antisense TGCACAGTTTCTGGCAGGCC; MOE gapmer, wing and gap sizes not given here) has monocytes at least equal to 2%.
false

I'd appreciate it if you could say whether ISIS 445531: 5-8-5 or 6-8-6 MOE microwalk gapmer (Table 44) (antisense eG*eG*e[5mC]*eA*eT*dT*dG*dG*dT*dG*d[5mC]*dA*d[5mC]*eA*eG*eT*eT*eT) has monocytes at least equal to 2%.
false

* * *

// reported eosinophils per item
experiment: Hematology assays in cynomolgus monkeys (Example 45); assay type: in vivo; settings: day 64
// units = %; emit number, no label

Here's what some known entries look like.
| substance | testReadout | quantityUnit | readoutNumber |
| --- | --- | --- | --- |
| ISIS 416838: MOE gapmer, nucleobases 1018 to 1042 of SEQ ID NO: 1 (Table 6) (antisense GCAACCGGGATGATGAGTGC; MOE gapmer, wing and gap sizes not given here) | eosinophils | % | 0.7 |
| ISIS 416864: MOE gapmer, nucleobases 1275 to 1318 of SEQ ID NO: 1 (Table 8) (antisense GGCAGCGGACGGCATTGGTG; MOE gapmer, wing and gap sizes not given here) | eosinophils | % | 0.7 |
| ISIS 417002: MOE gapmer, nucleobases 1275 to 1318 of SEQ ID NO: 1 (Table 8) (antisense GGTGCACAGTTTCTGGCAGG; MOE gapmer, wing and gap sizes not given here) | eosinophils | % | 0.2 |
| ISIS 416858: MOE gapmer, nucleobases 1275 to 1318 of SEQ ID NO: 1 (Table 8) (antisense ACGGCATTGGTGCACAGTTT; MOE gapmer, wing and gap sizes not given here) | eosinophils | % | 0.4 |

Now consider the entry below.
GET /value?item= ISIS 416850: MOE gapmer, nucleobases 1275 to 1318 of SEQ ID NO: 1 (Table 8) (antisense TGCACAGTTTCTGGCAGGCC; MOE gapmer, wing and gap sizes not given here) &field=eosinophils returns 1.3

* * *

assay: Hematology assays in cynomolgus monkeys (Example 45); type: in vivo; settings: day 15
testReadout: eosinophils (%)
// units = %; emit number, no label

| substance | quantityUnit | eosinophils |
| --- | --- | --- |
| ISIS 416838: MOE gapmer, nucleobases 1018 to 1042 of SEQ ID NO: 1 (Table 6) (antisense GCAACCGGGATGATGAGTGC; MOE gapmer, wing and gap sizes not given here) | % | 0.3 |

Now consider the entry below.
GET /value?item= ISIS 416850: MOE gapmer, nucleobases 1275 to 1318 of SEQ ID NO: 1 (Table 8) (antisense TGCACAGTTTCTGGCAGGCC; MOE gapmer, wing and gap sizes not given here) &field=eosinophils returns 1.0

* * *

// reported RBC per item
conditions: rat, in vivo, sc, 50 mg/kg
e = 2'-O-(2-methoxyethyl) (MOE); d = 2'-deoxy (DNA)
// units = pL⁻¹; emit number, no label

Here's what some known entries look like.
| substance | RBC (pL⁻¹) |
| --- | --- |
| ISIS 445530: 5-8-5 or 6-8-6 MOE microwalk gapmer (Table 44) (antisense GCATTGGTGCACAGTTTC; sugars from the 5' end e5 d8 e5, backbone and methylation of C not given here) | 8.9 |
| ISIS 445498: 5-8-5 or 6-8-6 MOE microwalk gapmer (Table 44) (antisense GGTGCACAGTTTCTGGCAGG; sugars from the 5' end e6 d8 e6, backbone and methylation of C not given here) | 8.5 |
| ISIS 445509: 5-8-5 or 6-8-6 MOE microwalk gapmer (Table 44) (antisense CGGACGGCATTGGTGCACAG; sugars from the 5' end e6 d8 e6, backbone and methylation of C not given here) | 8.4 |
| ISIS 445505: 5-8-5 or 6-8-6 MOE microwalk gapmer (Table 44) (antisense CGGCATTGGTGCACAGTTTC; sugars from the 5' end e6 d8 e6, backbone and methylation of C not given here) | 9.1 |
| ISIS 445513: 5-8-5 or 6-8-6 MOE microwalk gapmer (Table 44) (antisense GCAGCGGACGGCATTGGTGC; sugars from the 5' end e6 d8 e6, backbone and methylation of C not given here) | 7.8 |

GET /value?item= ISIS 445504: 5-8-5 or 6-8-6 MOE microwalk gapmer (Table 44) (antisense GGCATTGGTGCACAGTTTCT; sugars from the 5' end e6 d8 e6, backbone and methylation of C not given here) &field=RBC returns 8.9

* * *

assay: Tolerability in CD1 mice: kidney function, BUN, creatinine (Example 33); conditions: plasma, 50 mg/kg s.c. twice a week, 6 weeks
testReadout: Creatinine (mg/dL)
// units = mg/dL; emit number, no label

| substance | quantityUnit | Creatinine |
| --- | --- | --- |
| ISIS 416858: MOE gapmer, nucleobases 1275 to 1318 of SEQ ID NO: 1 (Table 8) (antisense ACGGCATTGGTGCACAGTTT; MOE gapmer, wing and gap sizes not given here) | mg/dL | 0.10 |

GET /value?item= ISIS 417002: MOE gapmer, nucleobases 1275 to 1318 of SEQ ID NO: 1 (Table 8) (antisense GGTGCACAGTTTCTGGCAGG; MOE gapmer, wing and gap sizes not given here) &field=Creatinine returns 0.10

GET /value?item= ISIS 416850: MOE gapmer, nucleobases 1275 to 1318 of SEQ ID NO: 1 (Table 8) (antisense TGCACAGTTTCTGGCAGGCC; MOE gapmer, wing and gap sizes not given here) &field=Creatinine returns 0.19

GET /value?item= ISIS 416838: MOE gapmer, nucleobases 1018 to 1042 of SEQ ID NO: 1 (Table 6) (antisense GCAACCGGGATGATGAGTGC; MOE gapmer, wing and gap sizes not given here) &field=Creatinine returns 0.14

GET /value?item= ISIS 416864: MOE gapmer, nucleobases 1275 to 1318 of SEQ ID NO: 1 (Table 8) (antisense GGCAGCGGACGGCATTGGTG; MOE gapmer, wing and gap sizes not given here) &field=Creatinine returns 0.16

* * *

conditions: mouse, in vivo, sc, 50 mg/kg
e = 2'-O-(2-methoxyethyl) (MOE); d = 2'-deoxy (DNA)
Entries whose Lymphocyte is below 6000 cells/μL take criterion met; entries at or above 6000 cells/μL take criterion not met.

Worked examples follow.
| substance | answerLabel |
| --- | --- |
| ISIS 416850: MOE gapmer, nucleobases 1275 to 1318 of SEQ ID NO: 1 (Table 8) (antisense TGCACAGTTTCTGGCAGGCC; MOE gapmer, wing and gap sizes not given here) | criterion met |
| ISIS 416856: MOE gapmer, nucleobases 1275 to 1318 of SEQ ID NO: 1 (Table 8) (antisense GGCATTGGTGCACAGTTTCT; MOE gapmer, wing and gap sizes not given here) | criterion met |
| ISIS 416864: MOE gapmer, nucleobases 1275 to 1318 of SEQ ID NO: 1 (Table 8) (antisense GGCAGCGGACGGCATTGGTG; MOE gapmer, wing and gap sizes not given here) | criterion met |

Consider now this further substance.
Record ISIS 412224: 5-10-5 MOE gapmer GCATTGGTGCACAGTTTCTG (sugars from the 5' end e5 d10 e5, backbone and methylation of C not given here) : is its Lymphocyte strictly below 6000 cells/μL?
criterion not met

* * *

test system: platelet aggregation; test: Platelet aggregation assay, ADP and/or collagen (Example 45); assay type: in vivo, cynomolgus monkeys; conditions: day 36 (with ADP); escalating dose regimen
// reported platelet aggregation per item
// units = Ohms; emit number, no label

Here's what some known entries look like.
| substance | testReadout | quantityUnit | readoutNumber |
| --- | --- | --- | --- |
| ISIS 416864: MOE gapmer, nucleobases 1275 to 1318 of SEQ ID NO: 1 (Table 8) (antisense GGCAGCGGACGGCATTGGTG; MOE gapmer, wing and gap sizes not given here) | platelet aggregation | Ohms | 17.8 |
| ISIS 416838: MOE gapmer, nucleobases 1018 to 1042 of SEQ ID NO: 1 (Table 6) (antisense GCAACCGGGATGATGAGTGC; MOE gapmer, wing and gap sizes not given here) | platelet aggregation | Ohms | 8 |
| ISIS 416850: MOE gapmer, nucleobases 1275 to 1318 of SEQ ID NO: 1 (Table 8) (antisense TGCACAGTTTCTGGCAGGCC; MOE gapmer, wing and gap sizes not given here) | platelet aggregation | Ohms | 16 |

GET /value?item= ISIS 416858: MOE gapmer, nucleobases 1275 to 1318 of SEQ ID NO: 1 (Table 8) (antisense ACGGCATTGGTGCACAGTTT; MOE gapmer, wing and gap sizes not given here) &field=platelet aggregation returns 17

GET /value?item= ISIS 417002: MOE gapmer, nucleobases 1275 to 1318 of SEQ ID NO: 1 (Table 8) (antisense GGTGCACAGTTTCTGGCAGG; MOE gapmer, wing and gap sizes not given here) &field=platelet aggregation returns 13.9
